// provenance: patent US20230365582A1

target: hEP4 (Homo sapiens); construct: expressed in transfected cells; host or cells: HEK293; assay: hEP4 cAMP assay; format: cell-based; settings: HEK293 cells overexpressing hEP4; PGE2 agonist 20 nM; graded per Table 21; read-out: IC50 (nM) EP4 cAMP
Sequence (P35408 whole entry): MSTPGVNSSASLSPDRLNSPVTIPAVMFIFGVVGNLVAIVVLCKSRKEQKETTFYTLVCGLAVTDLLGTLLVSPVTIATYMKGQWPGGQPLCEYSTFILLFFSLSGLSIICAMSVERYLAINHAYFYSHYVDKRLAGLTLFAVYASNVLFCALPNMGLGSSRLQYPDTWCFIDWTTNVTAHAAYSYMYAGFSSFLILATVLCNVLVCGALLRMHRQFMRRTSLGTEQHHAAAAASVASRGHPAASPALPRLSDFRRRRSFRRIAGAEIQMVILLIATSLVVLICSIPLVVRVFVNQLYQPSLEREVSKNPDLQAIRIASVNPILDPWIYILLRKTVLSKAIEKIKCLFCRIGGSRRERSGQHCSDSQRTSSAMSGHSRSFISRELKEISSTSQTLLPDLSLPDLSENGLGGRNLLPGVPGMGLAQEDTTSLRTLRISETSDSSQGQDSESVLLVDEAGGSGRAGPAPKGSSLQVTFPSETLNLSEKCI
Measurement Label: IC50

O=C(NC1CC2(C1)CC(C(=O)O)C2)c1sccc1Cc1ccc(-c2ccccc2)cc1 (centres unmarked): 500 to 5000 nM
COc1cncc(-c2ccc(Cn3ccc4scc(C(=O)NC5CC6(C5)CC(C(=O)O)C6)c43)cc2)c1 (centres unmarked): < 500 nM
Cc1sc(C)c(C(=O)NC2CC3(C2)CC(C(=O)O)C3)c1Cc1cccc(-c2ccccc2)c1 (centres unmarked): 5000 to 10000 nM

Turning now to a further record.
Looking for the measured IC50 of COC(c1ccc(-c2ccccc2)cc1)c1c(C)sc(C)c1C(=O)NC1CC2(C1)CC(C(=O)O)C2 (centres unmarked) , can you help?
> 10000 nM

---

Biological target: hEP4 (Homo sapiens)
Construct: expressed in transfected cells; host or cells: HEK293
Experiment: hEP4 cAMP assay
Type: cell-based
Conditions: HEK293 cells overexpressing hEP4; PGE2 agonist 20 nM; graded per Table 21; read-out: IC50 (nM) EP4 cAMP
Method: HEK293 cells overexpressing hEP4 were cultured in growth medium (GM: MEM (Gibco™, 11095080)/10% HI FBS (Gibco™, 10082147)/1% penicillin/streptomycin). […] 5 μL of each donor (Eu-cAMP tracer) and acceptor (ULight-anti-cAMP) was added, and the plate was incubated in the dark for 1 hour at room temperature, and then a Varioskan LUX multimode microplate reader was used to obtain the results (excitation: 334 nm, emission: 615 and 665 nm). […]
Reported IC50 values for the following compounds.

Check out these entries, answers already filled in.
Cc1sc(C)c(C(=O)NC2CC3(C2)CC(C(=O)O)C3)c1Cc1ccc(-c2ccccc2F)cc1 (stereo not shown) [Example 49]: > 10000 nM
Cc1sc(C)c(C(=O)NC2CC3(C2)CC(C(=O)O)C3)c1Cc1ccc(-c2ccccc2O)cc1 (stereo not shown) [Example 25]: 5000 to 10000 nM
O=C(NC1CC2(C1)CC(C(=O)O)C2)c1csc2ccn(Cc3ccc(-c4ccccc4)nc3)c12 (stereo not shown) [Example 105]: < 500 nM
COc1cc(OC)cc(-c2ccc(Cn3ccc4scc(C(=O)NC5CC6(C5)CC(C(=O)O)C6)c43)cc2)c1 (stereo not shown) [Example 89]: < 500 nM
Cc1sc(C)c(C(=O)NC2CC3(C2)CC(C(=O)O)C3)c1Cc1ccc(-c2ccc(C(=O)OC(C)(C)C)cc2)cc1 (stereo not shown) [Example 36]: < 500 nM
Cc1sc2ccn(Cc3ccc(-c4ccccc4)cc3)c2c1C(=O)NC1CC2(C1)CC(C(=O)O)C2 (stereo not shown) [Example 80]: < 500 nM

Looking for the measured IC50 of Cc1scc(Cc2ccc(-c3ccccc3)cc2)c1C(=O)NC1CC2(C1)CC(C(=O)O)C2 (stereo not shown) [Example 14] , can you help?
500 to 5000 nM

What do we get for Cc1sc(C)c(C(=O)NC2CC3(C2)CC(C(=O)O)C3)c1Cc1ccc(-c2cc(F)cc(C3CNC3)c2)cc1 (stereo not shown) [Example 65] ?
500 to 5000 nM

What do we get for COc1cc(F)cc(-c2ccc(Cn3ccc4scc(C(=O)NC5CC6(C5)CC(C(=O)O)C6)c43)cc2)c1 (stereo not shown) [Example 97] ?
< 500 nM
